// provenance: patent US8871753B2

Reported pIC50 by item:
Target Or Test System: human JAK2 (a.a. 828-1132) (Homo sapiens, UniProt O60674)
Construct: JAK2 (a.a. 828-1132); His tag (N); made in house; host or cells: insect cells (baculovirus)
Sequence (O60674 828-1132): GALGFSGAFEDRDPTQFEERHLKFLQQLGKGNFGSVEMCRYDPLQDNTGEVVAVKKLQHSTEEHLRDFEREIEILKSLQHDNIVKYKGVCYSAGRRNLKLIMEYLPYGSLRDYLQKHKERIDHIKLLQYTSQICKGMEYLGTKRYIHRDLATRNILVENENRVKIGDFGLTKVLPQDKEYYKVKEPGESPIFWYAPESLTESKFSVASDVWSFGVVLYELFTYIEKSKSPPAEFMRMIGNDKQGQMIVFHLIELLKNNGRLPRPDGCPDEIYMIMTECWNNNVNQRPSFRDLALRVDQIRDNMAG
Assay Details: In vitro JAK kinase assay (HTRF, phosphorylation of a biotinylated peptide), JAK2
Format: biochemical
Conditions: method AA1 (30 μM ATP) or AA2 (1000 μM ATP), not stated per value
Scale for pIC50: -log10 of concentration given in mol/L; no unit attached.

O=C(CC1CCN(c2ccccc2)CC1)Nc1ccc2cc1CCc1cncc(c1)Nc1ncc(Cl)c(n1)N2 [Example A219, tris(trifluoroacetate)]: 7.05

Please look at the following compound next.
Enquiry: Test system human JAK2 (a.a. 828-1132) (Homo sapiens, UniProt O60674); read-out pIC50; what value for O=C(CC1CCN(c2nccs2)CC1)Nc1ccc2cc1CCc1cncc(c1)Nc1ncc(Cl)c(n1)N2 [Example A159, tris(trifluoroacetate)] ?
Return: 7.06

====

log10 IC50 by entry:
Target Or Test System: human JAK3 (a.a. 781-1124) (Homo sapiens, UniProt P52333)
Construct: JAK3 (a.a. 781-1124); His tag (N); made in house; host or cells: insect cells (baculovirus)
Sequence (P52333 781-1124): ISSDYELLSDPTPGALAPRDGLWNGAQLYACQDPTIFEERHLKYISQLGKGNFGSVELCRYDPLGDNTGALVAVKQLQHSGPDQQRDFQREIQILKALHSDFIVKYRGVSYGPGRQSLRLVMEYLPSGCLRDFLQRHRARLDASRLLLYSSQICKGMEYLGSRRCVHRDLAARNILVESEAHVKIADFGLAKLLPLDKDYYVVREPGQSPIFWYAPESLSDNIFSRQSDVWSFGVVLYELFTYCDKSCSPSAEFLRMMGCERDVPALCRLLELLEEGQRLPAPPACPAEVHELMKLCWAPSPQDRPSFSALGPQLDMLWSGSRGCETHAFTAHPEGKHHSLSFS
Assay Details: In vitro JAK kinase assay (HTRF, phosphorylation of a biotinylated peptide), JAK3
Assay type: biochemical
Conditions: Table B1
Counter-ions that a name gives are not always drawn.
Answers are given as log10 of IC50 in µM.

O=C(Nc1ccc2cc1CCc1cccc(c1)Nc1ncc(Cl)c(n1)N2)Nc1ccccc1-c1ccccc1 [Example B130, trifluoroacetate]: -0.48

Enquiry: Using the record for O=C(Nc1ccc(OC(F)(F)F)cc1)Nc1ccc2cc1CCc1cccc(c1)Nc1ncc(Cl)c(n1)N2 [Example B132, trifluoroacetate] , report its log10 IC50.
Return: -0.70

Enquiry: Try the compound CC(=O)N1CC[C@@H](NC(=O)Nc2ccc3cc2CCc2cccc(c2)Nc2ncc(Cl)c(n2)N3)C1 [Example B177, trifluoroacetate]
Return: -1.34

Enquiry: Lookup CC(C)(C)NS(=O)(=O)c1cc2cc(c1)Nc1nc(ncc1Cl)Nc1cccc(c1)CC2 [Example B16, trifluoroacetate]
Return: -0.74

Enquiry: Can you check CCS(=O)(=O)Nc1ccc2cc1CCc1cccc(c1)Nc1ncc(Cl)c(n1)N2 [Example B141, trifluoroacetate] next?
Return: -2.52

====

Target Or Test System: TYK2 (Homo sapiens, UniProt P29597)
Sequence (P29597 whole entry): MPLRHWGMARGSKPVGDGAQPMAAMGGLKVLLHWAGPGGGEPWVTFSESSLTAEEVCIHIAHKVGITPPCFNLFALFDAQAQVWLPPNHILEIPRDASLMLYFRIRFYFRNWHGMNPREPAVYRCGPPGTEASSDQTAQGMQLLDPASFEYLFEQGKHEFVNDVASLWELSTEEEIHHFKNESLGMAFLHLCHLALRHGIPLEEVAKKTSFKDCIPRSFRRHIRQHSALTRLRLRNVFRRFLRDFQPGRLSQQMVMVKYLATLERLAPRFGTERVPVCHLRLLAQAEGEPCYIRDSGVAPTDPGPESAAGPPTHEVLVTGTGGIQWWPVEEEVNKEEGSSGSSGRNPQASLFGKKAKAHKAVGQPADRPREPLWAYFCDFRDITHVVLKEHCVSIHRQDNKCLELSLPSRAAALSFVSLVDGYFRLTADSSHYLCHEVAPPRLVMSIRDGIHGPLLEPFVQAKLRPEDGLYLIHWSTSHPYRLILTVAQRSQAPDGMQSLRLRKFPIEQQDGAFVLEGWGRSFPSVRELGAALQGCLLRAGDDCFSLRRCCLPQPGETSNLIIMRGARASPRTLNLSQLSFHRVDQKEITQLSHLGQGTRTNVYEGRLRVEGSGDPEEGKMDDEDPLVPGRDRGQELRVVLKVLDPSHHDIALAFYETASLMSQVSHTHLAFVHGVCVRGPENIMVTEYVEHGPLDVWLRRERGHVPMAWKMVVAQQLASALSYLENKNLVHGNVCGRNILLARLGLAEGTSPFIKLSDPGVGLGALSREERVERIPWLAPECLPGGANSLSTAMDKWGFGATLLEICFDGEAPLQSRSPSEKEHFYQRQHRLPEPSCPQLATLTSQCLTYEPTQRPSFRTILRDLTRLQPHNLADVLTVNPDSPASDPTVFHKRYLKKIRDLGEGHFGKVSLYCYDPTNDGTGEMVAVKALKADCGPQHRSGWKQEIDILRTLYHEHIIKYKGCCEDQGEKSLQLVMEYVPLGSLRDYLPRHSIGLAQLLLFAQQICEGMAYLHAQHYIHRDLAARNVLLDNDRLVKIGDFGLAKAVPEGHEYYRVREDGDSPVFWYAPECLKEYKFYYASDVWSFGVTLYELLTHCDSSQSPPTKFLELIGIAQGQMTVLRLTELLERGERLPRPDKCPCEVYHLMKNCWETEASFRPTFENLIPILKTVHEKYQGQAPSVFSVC
Assay Details: TYK2 kinase inhibition (Table A1)
Assay type: biochemical
Counter-ions that a name gives are not always drawn.
Recorded Endpoint: pIC50
Quick note: pIC50 values are minus log10 of concentrations in mol/L.

NS(=O)(=O)N1CC[C@@H](C(=O)Nc2ccc3cc2CCc2cccc(c2)Nc2ncc(Cl)c(n2)N3)C1 [Example A74, trifluoroacetate]: 7.77
O=C(CC1CCN(c2ccccc2)CC1)Nc1ccc2cc1CCc1cncc(c1)Nc1ncc(Cl)c(n1)N2 [Example A219, tris(trifluoroacetate)]: 6.74
Cn1ccc2c(NC(=O)N3CCC(C(=O)Nc4ccc5cc4CCc4cccc(c4)Nc4ncc(Cl)c(n4)N5)CC3)cccc21 [Example A41, trifluoroacetate]: 6.99

Enquiry: What value of pIC50 has been recorded for this entry: Cc1[nH]c2ccccc2c1CC(=O)Nc1ccc2cc1CCc1cccc(c1)Nc1ncc(Cl)c(n1)N2 [Example C34, trifluoroacetate]
Return: 6.11

Enquiry: Request: Clc1cnc2nc1Nc1cccc(c1)/C=C\c1cccc(c1)N2 [Example A1, trifluoroacetate]
Return: 8.33

====

Target Or Test System: human JAK1 (a.a. 837-1142) (Homo sapiens, UniProt P23458)
Construct: human JAK1 (a.a. 837-1142); His tag (N); made in house; host or cells: insect cells (baculovirus)
Sequence (P23458 849-1154): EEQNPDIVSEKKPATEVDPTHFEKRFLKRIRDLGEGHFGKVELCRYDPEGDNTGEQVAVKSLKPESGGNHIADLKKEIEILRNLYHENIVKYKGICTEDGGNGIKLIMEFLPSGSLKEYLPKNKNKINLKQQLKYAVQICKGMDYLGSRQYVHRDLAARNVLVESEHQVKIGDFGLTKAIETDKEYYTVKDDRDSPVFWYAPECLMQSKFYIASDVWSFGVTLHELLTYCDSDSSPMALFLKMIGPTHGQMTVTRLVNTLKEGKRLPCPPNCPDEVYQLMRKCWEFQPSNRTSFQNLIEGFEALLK
Assay Details: In vitro JAK kinase assay (HTRF, phosphorylation of a biotinylated peptide), JAK1
Format: biochemical
Conditions: Table D1; read-out: JAK1 IC50
Where a name gives a salt, the structure may show the parent alone.
Each record here notes measured pIC50.
// pIC50: -log10(molar conc.)

O=C(CC1CN(c2nccs2)C1)Nc1ccc2cc1CCc1cncc(c1)Nc1ncc(Cl)c(n1)N2 [Example D152, tris(trifluoroacetate)]: 7.68

Enquiry: Could you share which pIC50 value was measured for N#Cc1ccccc1N1CCN(C(=O)COc2ccc3cc2CCc2cncc(c2)Nc2ncc(Cl)c(n2)N3)CC1 [Example D235, tris(trifluoroacetate)] ?
Return: 7.19

Enquiry: Note, next up: O=C(C[C@H]1CCCN(C(=O)Nc2ccccc2)C1)Nc1ccc2cc1CCc1cccc(c1)Nc1ncc(Cl)c(n1)N2 [Example D197, trifluoroacetate]
Return: 7.80

Enquiry: Query CN1c2cccc(c2)OCCc2cccc(c2)Nc2ncc(Cl)c1n2 [Example D9, trifluoroacetate] next
Return: 6.74

====

A collection of compounds and their measured ALK % of inhibition at a concentration of 500 nM or 1 mM
Target Or Test System: Recombinant Human Anaplastic Lymphoma Kinase (Homo sapiens)
Construct: purchased Invitrogen, Carlsbad, Calif
Sequence (Q9UM73 19-1620): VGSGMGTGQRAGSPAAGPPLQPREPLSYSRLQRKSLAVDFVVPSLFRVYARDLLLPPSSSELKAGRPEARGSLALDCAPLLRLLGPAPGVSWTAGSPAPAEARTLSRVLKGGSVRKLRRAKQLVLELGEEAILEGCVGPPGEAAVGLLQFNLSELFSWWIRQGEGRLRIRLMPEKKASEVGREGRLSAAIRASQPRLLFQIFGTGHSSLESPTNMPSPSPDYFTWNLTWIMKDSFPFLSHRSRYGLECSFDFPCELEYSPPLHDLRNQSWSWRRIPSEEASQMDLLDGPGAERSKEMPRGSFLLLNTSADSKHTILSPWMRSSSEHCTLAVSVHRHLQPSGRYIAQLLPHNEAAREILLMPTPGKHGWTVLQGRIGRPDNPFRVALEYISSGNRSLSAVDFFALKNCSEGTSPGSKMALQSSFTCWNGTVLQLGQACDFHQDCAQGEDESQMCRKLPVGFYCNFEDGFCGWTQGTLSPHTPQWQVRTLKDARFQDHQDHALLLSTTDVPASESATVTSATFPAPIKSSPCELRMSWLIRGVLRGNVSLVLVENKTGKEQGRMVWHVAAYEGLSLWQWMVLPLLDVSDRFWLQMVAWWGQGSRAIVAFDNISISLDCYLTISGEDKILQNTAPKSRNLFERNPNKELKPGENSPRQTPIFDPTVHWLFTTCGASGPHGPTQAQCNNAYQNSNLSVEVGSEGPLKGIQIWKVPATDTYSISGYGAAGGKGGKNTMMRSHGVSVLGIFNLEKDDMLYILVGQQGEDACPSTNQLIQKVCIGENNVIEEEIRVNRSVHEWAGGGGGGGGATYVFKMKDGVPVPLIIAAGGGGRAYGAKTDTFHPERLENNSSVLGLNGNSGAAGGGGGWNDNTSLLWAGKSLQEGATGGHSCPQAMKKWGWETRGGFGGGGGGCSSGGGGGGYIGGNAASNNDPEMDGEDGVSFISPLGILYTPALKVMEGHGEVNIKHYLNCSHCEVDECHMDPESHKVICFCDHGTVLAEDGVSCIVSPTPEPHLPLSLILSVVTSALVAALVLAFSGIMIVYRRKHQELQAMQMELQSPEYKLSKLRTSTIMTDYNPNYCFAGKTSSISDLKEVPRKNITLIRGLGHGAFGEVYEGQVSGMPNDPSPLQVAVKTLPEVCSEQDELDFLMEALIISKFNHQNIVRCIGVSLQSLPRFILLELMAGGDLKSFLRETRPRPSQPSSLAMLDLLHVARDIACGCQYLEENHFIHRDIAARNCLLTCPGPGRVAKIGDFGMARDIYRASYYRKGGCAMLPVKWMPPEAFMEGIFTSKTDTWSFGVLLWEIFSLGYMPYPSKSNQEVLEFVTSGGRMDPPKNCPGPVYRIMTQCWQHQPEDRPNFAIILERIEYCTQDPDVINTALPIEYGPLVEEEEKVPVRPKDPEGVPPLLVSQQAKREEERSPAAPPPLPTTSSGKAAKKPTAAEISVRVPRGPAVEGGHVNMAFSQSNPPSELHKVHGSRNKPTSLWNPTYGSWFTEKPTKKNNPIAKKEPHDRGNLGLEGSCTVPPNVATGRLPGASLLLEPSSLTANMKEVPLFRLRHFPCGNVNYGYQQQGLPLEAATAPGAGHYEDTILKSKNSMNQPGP
Assay Details: ALK HTRF kinase assay
Type: biochemical
Conditions: compound at 500 nM or 1 mM; 90 μM ATP
Where a name gives a salt, the structure may show the parent alone.
Enter your answer as a number in %; do not include the unit.

O=C(Nc1ccc2cc1CCc1cccc(c1)Nc1ncc(Cl)c(n1)N2)C1CCN(C(=O)NC2CCCC2)CC1 [Example A61, trifluoroacetate]: 41

Enquiry: Which ALK % of inhibition at a concentration of 500 nM or 1 mM value is on record for NS(=O)(=O)N1CCC(CC(=O)Nc2ccc3cc2CCc2cncc(c2)Nc2ncc(Cl)c(n2)N3)CC1 [Example A78, bis(trifluoroacetate)] ?
Return: 39

Enquiry: Try this compound too: CC(C)S(=O)(=O)N1CCC(CC(=O)Nc2ccc3cc2CCc2cccc(c2)Nc2ncc(Cl)c(n2)N3)CC1 [Example A82, trifluoroacetate]
Return: 31

Enquiry: What do you have for COc1ccc(NC(=O)N2CCC(CC(=O)Nc3ccc4cc3CCc3cncc(c3)Nc3ncc(Cl)c(n3)N4)CC2)cc1 [Example A154, bis(trifluoroacetate)] ?
Return: 51

Enquiry: // same read-out, input: O=C(CC1CCN(c2ccccn2)CC1)Nc1ccc2cc1CCc1cncc(c1)Nc1ncc(Cl)c(n1)N2 [Example A170, tris(trifluoroacetate)]
Return: 37

====

Target Or Test System: human JAK1 (a.a. 837-1142) (Homo sapiens)
Construct: human JAK1 (a.a. 837-1142); His tag (N); made in house; host or cells: insect cells (baculovirus)
Assay Details: In vitro JAK kinase assay (HTRF, phosphorylation of a biotinylated peptide), JAK1
Format: biochemical
Conditions: read-out: JAK1 IC50
Counter-ions that a name gives are not always drawn.
Recorded Endpoint: IC50 (nM)
Write it as a number; the unit nM goes unstated.

// below: answered molecules
Cc1cnc2nc1Nc1ccc(N)c(c1)CCc1cncc(c1)N2 [Example C50, tris(trifluoroacetate)]: 33
O=C(Cc1ccco1)Nc1ccc2cc1CCc1cccc(c1)Nc1ncc(Cl)c(n1)N2 [Example C36, trifluoroacetate]: 33

Enquiry: IC50 for Cc1nc(CC(=O)Nc2ccc3cc2CCc2cccc(c2)Nc2ncc(Cl)c(n2)N3)cs1 [Example C38, trifluoroacetate] ?
Return: 37

====

Target Or Test System: human JAK1 (a.a. 837-1142) (Homo sapiens, UniProt P23458)
Construct: human JAK1 (a.a. 837-1142); His tag (N); made in house; host or cells: insect cells (baculovirus)
Assay Details: In vitro JAK kinase assay (HTRF, phosphorylation of a biotinylated peptide), JAK1
Type: biochemical
Conditions: Table B1; read-out: JAK1 IC50
Counter-ions that a name gives are not always drawn.
Label 1.0 when IC50 is strictly below 4 nM; at or above that, label 0.0.

Reference set, count: 5
O=C(Nc1ccc2cc1CCc1cccc(c1)Nc1ncc(Cl)c(n1)N2)c1ccco1 [Example B33, trifluoroacetate]: 1.0
O=S(=O)(Nc1ccc2cc1CCc1cccc(c1)Nc1ncc(Cl)c(n1)N2)c1ccccc1C(F)(F)F [Example B164, trifluoroacetate]: 0.0
O=C(Nc1ccc2cc1CCc1cccc(c1)Nc1ncc(Cl)c(n1)N2)c1ccc(F)cc1 [Example B49, trifluoroacetate]: 1.0
CS(=O)(=O)N1CC[C@@H](NC(=O)Nc2ccc3cc2CCc2cccc(c2)Nc2ncc(Cl)c(n2)N3)C1 [Example B178, trifluoroacetate]: 1.0
Cc1ccc(S(=O)(=O)Nc2ccc3cc2CCc2cccc(c2)Nc2ncc(Cl)c(n2)N3)cc1 [Example B150, trifluoroacetate]: 1.0

Enquiry: For this compound, is IC50 lower than 4 nM? Cc1cccc(S(=O)(=O)Nc2ccc3cc2CCc2cccc(c2)Nc2ncc(Cl)c(n2)N3)c1 [Example B148, trifluoroacetate]
Return: 1.0

Enquiry: Further, for Oc1ccnc(Nc2ccc3cc2CCc2cccc(c2)Nc2ncc(Cl)c(n2)N3)n1 [Example B277, bis(trifluoroacetate)] ?
Return: 0.0

Enquiry: Another compound to check: O=S(=O)(Cc1ccccc1)Nc1ccc2cc1CCc1cccc(c1)Nc1ncc(Cl)c(n1)N2 [Example B147, trifluoroacetate]
Return: 1.0

Enquiry: What do we get for CCOC(=O)c1coc(Nc2ccc3cc2CCc2cccc(c2)Nc2ncc(Cl)c(n2)N3)n1 [Example B278, bis(trifluoroacetate)] ?
Return: 0.0

Enquiry: Lookup O=C(Nc1ccc2cc1CCc1cccc(c1)Nc1ncc(Cl)c(n1)N2)c1nccs1 [Example B52, trifluoroacetate]
Return: 1.0

Enquiry: // query: O=C(Nc1nc[nH]n1)Nc1ccc2cc1CCc1cccc(c1)Nc1ncc(Cl)c(n1)N2 [Example B244, trifluoroacetate]
Return: 0.0
